# Tested on: HCC-2998 colon
# protocolNotes: NCI-60 one-dose screen, 48 h
# conditionInfo: 10 µM unless noted
The panel holds about 83,000 compounds, 20% with a hit somewhere; the sample as a whole holds those more often. Calls of active or inactive are those of the source. How the source made its calls: active means growth percent below 10; inactive means the rest.
Returns: one label drawn from t = active, f = inactive

Please review the following examples before continuing.
{"columns": ["compound", "experimentalSystem", "classification"],
 "data": [
  ["CN1CCN(CCNc2nccc(-c3c(-c4cccc(O)c4)nc4sccn34)n2)S1(=O)=O", "HCC-2998 colon", "f"],
  ["COc1ccc(/C=C/c2nc(Nc3ccc(S(=O)(=O)NC(C)=O)cc3)c3ccccc3n2)cc1", "HCC-2998 colon", "f"],
  ["O=[N+]([O-])CC(c1ccccc1F)c1c[nH]c2ccccc12 (stereo unspecified)", "HCC-2998 colon", "f"],
  ["c1ccc(-c2c(-c3ccccc3)[n+](Cc3ccc4ccccc4c3)c(-c3cccc4ccccc34)n2Cc2ccc3ccccc3c2)cc1", "HCC-2998 colon", "t"]
]}

For O=C(Nc1ccc(Cl)cc1)c1cc(NCc2cc(O)ccc2O)ccc1O , which call appears in the assay record?
f

Same question for CN1CCC(=C(c2ccccc2)c2ccccc2)C(c2ccccc2)C1 (stereo unspecified) please.
f

Same question for Clc1ccc(-c2ccc(CNCC3CCNCC3)o2)c(-c2ccccc2)c1 please.
t

Same question for CCCCCN1C=C/C(=C\C(=O)N(C)c2ccc(OC(F)(F)F)cc2)c2ccccc21 please.
f

Same question for COc1cc2c(=O)n(CCN)c3c4cc5c(cc4ccc3c2cc1OC)OCO5 please.
f

Same question for Nc1ccccc1NC(=O)c1ccc(-n2nc(-c3ccccc3)c3ccccc32)cc1 please.
f

Same question for COc1ccc(C(=O)C2C(C#N)C(C#N)C3C=Cc4ccccc4N32)cc1 (stereo unspecified) please.
f

Same question for CC(=O)Nc1cccc(-c2ccc3c(c2)NC(=O)/C3=C\c2ccc[nH]2)c1 please.
f

Same question for O=C(Cc1ccc(/C=C/C(=O)c2nccs2)cc1)Nc1ccccc1 please.
f

Same question for COc1ccc2c(c1)oc1c(C)c3c(c(C)c12)C(=O)N(N)C3=O please.
f

Same question for CCOC(=O)c1cc(C(=O)c2ccc(OC)cc2)n2ccc(/C=C/c3cc[n+](CC(=O)c4ccc(OC)cc4)cc3)cc12 please.
f

Same question for COc1cc2oc(-c3cccc(C(=O)Nc4ccc(Br)cc4)c3)cc(=O)c2c(OC)c1OC please.
f

Same question for Oc1ccc(OCCOc2ccc(O)cc2)cc1 please.
f

Same question for Cc1ccc(-c2[nH][nH]c(=O)c2-c2nc3ccccc3s2)cc1 please.
f

Same question for COc1cc(C2=C(c3cn(C)c4ccccc34)COC2=O)cc(OC)c1OC please.
t

Same question for [O-][n+]1c(Cl)cc(Cl)c2ccccc21 please.
f

Same question for COC(=O)N[C@H]1CCc2c(Cl)c(OC)c(OC)c(OC)c2-c2ccc(SC)c(=O)cc21 please.
f
